The reported numbers originate from ChEMBL document CHEMBL4368907.

Tested on: Sus scrofa
protocol: Anti-obesity activity in lean Landrace Yorkshire Duroc pig assessed as food intake at 30 nmol/kg, sc measured at 72 to 96 hrs post dose (reference value: 1.8 to 2.1 kg)
Format: functional
Numbered stars: 1 amine (or outer) side, 2 acyl side, 3 side chain; on linkers, the order of the positions; unused ones are H or OH. Square brackets hold non-standard residues; d marks the D form. Side chains are listed from the residue outwards. Peptide text beside a SMILES is read from it. * marks the point of attachment. C18 diacid = O=C(O)CCCCCCCCCCCCCCCCC(=O)*; γGlu = O=C(O)[C@H](CCC(=O)[*:2])N[*:1]; NMeF = CN[C@@H](Cc1ccccc1)C(=O)O; NMeD = CN[C@@H](CC(=O)O)C(=O)O; Nle = CCCC[C@H](N)C(=O)O; X1 = O=C(Cc1ccc(O)cc1)*; AEEA = NCCOCCOCC(=O)O
assay.metric: Activity (kg)
Give your result in kg as a bare value.

Query: Answer with reported Activity of CCCC[C@H](NC(=O)[C@H](Cc1c[nH]c2ccccc12)NC(=O)CNC(=O)[C@H](CCCCNC(=O)COCCOCCNC(=O)COCCOCCNC(=O)CC[C@H](NC(=O)CCCCCCCCCCCCCCCCC(=O)O)C(=O)O)NC(=O)Cc1ccc(O)cc1)C(=O)N(C)[C@@H](CC(=O)O)C(=O)N(C)[C@@H](Cc1ccccc1)C(N)=O (X1-K([AEEA-AEEA-γGlu-C18 diacid])GW[Nle][NMeD][NMeF]-NH2)
Response: 2.4

---

study.system: Cholecystokinin receptor type A (Homo sapiens)
Sequence (P32238 whole entry): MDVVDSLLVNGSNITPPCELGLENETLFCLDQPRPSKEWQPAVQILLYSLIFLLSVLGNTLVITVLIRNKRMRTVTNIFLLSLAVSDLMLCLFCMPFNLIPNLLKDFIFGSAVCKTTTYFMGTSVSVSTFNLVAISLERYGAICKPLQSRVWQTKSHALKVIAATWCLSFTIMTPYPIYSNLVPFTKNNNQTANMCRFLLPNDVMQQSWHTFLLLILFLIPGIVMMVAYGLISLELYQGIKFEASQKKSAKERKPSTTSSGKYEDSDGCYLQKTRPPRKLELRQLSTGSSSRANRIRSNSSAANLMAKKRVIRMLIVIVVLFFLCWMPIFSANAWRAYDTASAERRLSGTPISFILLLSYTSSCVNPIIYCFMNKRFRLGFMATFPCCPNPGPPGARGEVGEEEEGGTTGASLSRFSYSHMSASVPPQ
protocol: Agonist activity at human CCK1R expressed in human 1321N1 cells assessed as IP1 accumulation after 1 hr by HTRF assay
Numbered stars: 1 amine (or outer) side, 2 acyl side, 3 side chain; on linkers, the order of the positions; unused ones are H or OH. Square brackets hold non-standard residues; d marks the D form. Peptide text beside a SMILES is read from it. * marks the point of attachment. Phe(4-CH2SO3H) = N[C@@H](Cc1ccc(CS(=O)(=O)O)cc1)C(=O)O; Phenylacetyl(4-OSO3H) = O=C(Cc1ccc(OS(=O)(=O)O)cc1)*; sY = N[C@@H](Cc1ccc(OS(=O)(=O)O)cc1)C(=O)O; C18 diacid = O=C(O)CCCCCCCCCCCCCCCCC(=O)*; C16 diacid = O=C(O)CCCCCCCCCCCCCCC(=O)*; γGlu = O=C(O)[C@H](CCC(=O)[*:2])N[*:1]; NMeF = CN[C@@H](Cc1ccccc1)C(=O)O; dNMeD = CN[C@H](CC(=O)O)C(=O)O; Nle = CCCC[C@H](N)C(=O)O; AEEA = NCCOCCOCC(=O)O; βAla = NCCC(=O)O
assay.metric: EC50 (nM)
Give your result in nM as a bare value.

INSERT INTO assay_data (compound, measured) VALUES
  ('CCCC[C@H](NC(=O)Cc1ccc(OS(=O)(=O)O)cc1)C(=O)NCC(=O)N[C@@H](Cc1c[nH]c2ccccc12)C(=O)N[C@@H](CCCC)C(=O)N(C)[C@H](CC(=O)O)C(=O)N[C@@H](Cc1ccccc1)C(N)=O ({Phenylacetyl(4-OSO3H)}-[Nle]GW[Nle][dNMeD]F-NH2)', 0.0251),
  ('CCCC[C@H](NC(=O)[C@H](Cc1c[nH]c2ccccc12)NC(=O)CNC(=O)[C@H](CC(C)C)NC(=O)[C@H](Cc1ccc(OS(=O)(=O)O)cc1)NC(=O)[C@H](CC(=O)O)NC(=O)COCCOCCNC(=O)COCCOCCNC(=O)CC[C@H](NC(=O)CCCCCCCCCCCCCCCCC(=O)O)C(=O)O)C(=O)N[C@@H](CC(=O)O)C(=O)N[C@@H](Cc1ccccc1)C(N)=O', 0.129),
  ('CCCC[C@H](NC(=O)[C@H](Cc1c[nH]c2ccccc12)NC(=O)CNC(=O)[C@H](CC(C)C)NC(=O)[C@H](Cc1ccc(CS(=O)(=O)O)cc1)NC(=O)[C@H](CC(=O)O)NC(=O)COCCOCCNC(=O)COCCOCCNC(=O)CC[C@H](NC(=O)CCCCCCCCCCCCCCC(=O)O)C(=O)O)C(=O)N(C)[C@H](CC(=O)O)C(=O)N(C)[C@@H](Cc1ccccc1)C(N)=O ({C16 diacid-γGlu-AEEA-AEEA}-D[Phe(4-CH2SO3H)]LGW[Nle][dNMeD][NMeF]-NH2)', 0.191);

Query: Lab note: Cholecystokinin receptor type A (Homo sapiens) assay, enter EC50 for CCCC[C@H](NC(=O)[C@H](Cc1ccc(CS(=O)(=O)O)cc1)NC(=O)[C@H](CC(=O)O)NC(=O)COCCOCCNC(=O)[C@H](CCCCN)NC(=O)COCCOCCNC(=O)COCCOCCNC(=O)CC[C@H](NC(=O)CCCCCCCCCCCCCCCCC(=O)O)C(=O)O)C(=O)NCC(=O)N[C@@H](Cc1c[nH]c2ccccc12)C(=O)N[C@@H](CCCC)C(=O)N(C)[C@H](CC(=O)O)C(=O)N(C)[C@@H](Cc1ccccc1)C(N)=O ({C18 diacid-γGlu-AEEA-AEEA}-K[AEEA]D[Phe(4-CH2SO3H)][Nle]GW[Nle][dNMeD][NMeF]-NH2) here
Response: 0.214

Query: Lab note: Cholecystokinin receptor type A (Homo sapiens) assay, enter EC50 for CCCC[C@H](NC(=O)[C@H](Cc1ccc(OS(=O)(=O)O)cc1)NC(=O)[C@H](CC(=O)O)NC(=O)COCCOCCNC(=O)COCCOCCNC(=O)CC[C@H](NC(=O)CCCCCCCCCCCCCCCCC(=O)O)C(=O)O)C(=O)NCC(=O)N[C@@H](Cc1c[nH]c2ccccc12)C(=O)N[C@@H](CCCC)C(=O)N[C@@H](CC(=O)O)C(=O)N[C@@H](Cc1ccc(O)cc1)C(N)=O ({C18 diacid-γGlu-AEEA-AEEA}-D[sY][Nle]GW[Nle]DY-NH2) here
Response: 0.977

Query: Lab note: Cholecystokinin receptor type A (Homo sapiens) assay, enter EC50 for CCCC[C@H](NC(=O)[C@H](Cc1c[nH]c2ccccc12)NC(=O)CCNC(=O)[C@H](CC(C)C)NC(=O)[C@H](Cc1ccc(OS(=O)(=O)O)cc1)NC(=O)[C@H](CC(=O)O)NC(=O)COCCOCCNC(=O)COCCOCCNC(=O)CC[C@H](NC(=O)CCCCCCCCCCCCCCCCC(=O)O)C(=O)O)C(=O)N[C@@H](CC(=O)O)C(=O)N[C@@H](Cc1ccccc1)C(N)=O ({C18 diacid-γGlu-AEEA-AEEA}-D[sY]L[βAla]W[Nle]DF-NH2) here
Response: 117

Query: Lab note: Cholecystokinin receptor type A (Homo sapiens) assay, enter EC50 for `CCCC[C@H](NC(=O)[C@H](Cc1c[nH]c2ccccc12)NC(=O)CNC(=O)[C@H](CC(C)C)NC(=O)[C@H](Cc1ccc(OS(=O)(=O)O)cc1)NC(=O)[C@H](CC(=O)O)NC(=O)COCCOCCNC(=O)COCCOCCNC(=O)CC[C@H](NC(=O)CCCCCCCCCCCCCCCCC(=O)O)C(=O)O)C(=O)N[C@@H](CC(=O)O)C(=O)N(C)[C@@H](Cc1ccccc1)C(N)=O` here
Response: 0.115
